test system: HEK-293T; assay: Incucyte cell viability with HEK293T; format: toxicity, cell-based; conditions: human, 12 h, 10 µM, compound concentration 10 uM, replicate number 1, timepoint 12 hours; also: unitless GR value; below 1 slowed growth and below 0 cell loss
Flag rule - Growth Rate less than 0.5 flags Yes; the remaining entries get No.

The examples below pair each entry with its known result.
molecule	class
C[C@H](CCC(=O)O)[C@H]1CC[C@H]2[C@@H]3CC[C@@H]4C[C@H](O)CC[C@]4(C)[C@H]3CC[C@]12C	No
CC1=C(C)C(=O)C(C(C)(C)CC(=O)N(CCCCSC[C@H]2O[C@@H](n3cnc4c(N)ncnc43)[C@H](O)[C@@H]2O)Cc2cccc(-c3ccc(Cl)cc3)c2)=C(C)C1=O	Yes
C[C@@](Cc1c[nH]c2ccccc12)(NC(=O)Nc1ccc([N+](=O)[O-])cc1)C(=O)NCC1(c2ccccn2)CCCCC1	Yes
C[N+]1(C)[C@@H]2C[C@@H](OC(=O)C(O)(c3cccs3)c3cccs3)C[C@H]1[C@@H]1O[C@@H]12.O.[Br-] [TIOTROPIUM BROMIDE]	No
CN(C)C/C=C/C(=O)Nc1ccc(C(=O)N2CCCC(Nc3ncc(Cl)c(-c4c[nH]c5ccccc45)n3)C2)cc1 (stereo unspecified)	Yes

Problem: For "CNc1nc(NCc2ncccn2)c2c(-c3ccc4ncccc4c3)c[nH]c2n1" , is the recorded Growth Rate below the cut-off of 0.5?
Solution: Yes

Problem: Growth Rate strictly < 0.5 for this molecule? "CC(C)C[C@@H](NC(=O)[C@H](Cc1ccccc1)NC(=O)CNC(=O)[C@@H](C)NC(=O)[C@@H](N)Cc1ccc(O)cc1)C(=O)O"
Solution: No

Problem: Lab note: confirm whether the reported Growth Rate for this molecule is below 0.5, equality not counting. molecule: "COc1ccncc1C(=O)NC(=O)Nc1ccc(-c2ccccc2)c(C(F)(F)F)c1"
Solution: Yes

Problem: I'd appreciate it if you could check whether "CCC(=O)N1CC[C@H](Nc2ncnc3c2CN(c2cnc(OC)c(C(F)(F)F)c2)CC3)C1" has Growth Rate smaller than 0.5.
Solution: No

Problem: Lab note: confirm whether the reported Growth Rate for this molecule is below 0.5, equality not counting. molecule: "O=C(NC[C@@H]1[C@H]2CN(C(=O)OCc3cc(C(F)(F)F)cc(C(F)(F)F)c3)C[C@@H]12)c1ccc2[nH]nnc2c1"
Solution: No

Problem: # TODO verify Growth Rate < 0.5 strictly for this molecule: "CC(=O)c1ccc2c(c1)[C@@H]1C=CC[C@@H]1[C@H](c1cc3c(cc1Br)OCO3)N2"
Solution: Yes

Problem: Here's an entry: Nc1cnc(N2CCc3cc(S(=O)(=O)Nc4c(F)cc(Cl)cc4F)cc(N4CCCC4=O)c32)nc1 [TP-020n] . Is its Growth Rate below 0.5?
Solution: Yes

Problem: Is it true that Growth Rate reported for "NC(=O)c1cccc(-c2cc(Nc3ccc(OC(F)(F)F)cc3)ncn2)c1" is less than 0.5?
Solution: Yes

Problem: Consider "CNC(=O)c1nn(C)c2c1C(C)(C)Cc1cnc(Nc3ccc(N4CCN(C)CC4)cc3)nc1-2" . Does its Growth Rate lie strictly below 0.5?
Solution: Yes

###

system: HEK-293T; assay: Incucyte cell viability with HEK293T; format: toxicity, cell-based; conditions: human, 24 h, 10 µM, compound concentration 10 uM, replicate number 1, timepoint 24 hours; also: unitless GR value; below 1 slowed growth and below 0 cell loss
valueType: Growth Rate
Please give the numeric answer without any surrounding text.

Study these solved cases before continuing.
recordSmiles	Growth Rate
CSCC[C@H](NC=O)C(=O)N[C@@H](CC(C)C)C(=O)N[C@@H](Cc1ccccc1)C(=O)O	0.82
CCC(=O)NC[C@@H]1C[C@H]1c1cccc2c1CCO2	0.79
O=S(=O)(c1ccccc1)N(CC(F)(F)F)c1ccc(C(O)(C(F)(F)F)C(F)(F)F)cc1	0.37
COc1ccc2[nH]cc(CCNC(C)=O)c2c1	0.94

Here is another compound to look at.
Entry "CC(C)n1cc(-c2ccc(N3CCN(C)CC3)c(NC(=O)c3ccc(-c4ccncc4)o3)c2)cn1" , HEK-293T data, Growth Rate value: 0.11
